Test system: HOP-92
Assay: NCI tumour cell line growth inhibition, 48 h
Active and inactive are the calls of the source. No stated cut-off is given here; in the data, active = GI50 up to about 1.1 µM and inactive = higher.
Bench note: report the call from true = active, false = inactive

Some entries whose results are on file:
# compound, assayed-target, assigned-label
records = [
    ("CC(=O)OCC1OC(O[C@@H]2C[C@H]3C(C)(C)[C@@H](OC(C)=O)CC[C@]3(C)[C@H]3CC[C@]45C[C@]4(CC[C@H]5[C@@H](C)C[C@@H](O)[C@H](O)C(C)(C)F)[C@@]32C)C(O)C(O)C1O (stereo not given in full)", "HOP-92", "false"),
    ("C/C(=N\\Nc1nc2cc(C)ccc2s1)c1ccccn1", "HOP-92", "true"),
    ("O=C(CC(=O)c1ccc([N+](=O)[O-])cc1)C(=O)Nc1nccs1", "HOP-92", "false"),
    ("Oc1ccc(CNCc2ccccc2)c2cccnc12", "HOP-92", "true"),
    ("S=P(C1CCCCC1)(C1CCCCC1)C(c1cccnc1)N1CCCC1 (stereo not given)", "HOP-92", "false"),
]

Q: Recorded test call requested for COc1cc2c(cc1OC)C(N)CC2=O (stereo not given)
Ans: false

Q: Another compound: CC(CO)(CBr)COC(=O)c1cc(Br)c(N)c(Br)c1 (stereo not given)
Ans: false

Q: Another compound: C=CCC1C2CCC(O[Si](C(C)C)(C(C)C)C(C)C)(C(C(=O)OC)C2)C1O (stereo not given)
Ans: false

Q: Another compound: Cc1cc(NS(=O)(=O)c2ccc(NC(=O)c3cccc4c(NNc5ccc(S(N)(=O)=O)cc5)c5ccccc5nc34)cc2)no1
Ans: false

Q: Another compound: Cc1ccc(/N=N/c2c(C)nn(C(=O)CC(=O)Nc3ccccc3)c2C)cc1C
Ans: false

Q: Another compound: COc1cc(C(=O)C2C(=O)c3ccccc3C2C2(O)c3ccccc3CC2C(O)c2cc(OC)c(OC)c(OC)c2)cc(OC)c1OC (stereo not given)
Ans: false

Q: Another compound: CCOC(=O)C1CC(C(=O)c2ccccc2)N2c3ccccc3-c3ccccc3C12 (stereo not given)
Ans: false

====

Tested on: NCI-H23
Assay: NCI tumour cell line growth inhibition, 48 h
Activity calls are given as the source filed them. No stated cut-off is given here; in the data, active = GI50 up to about 1.1 µM and inactive = higher.
Could you please report measured GI50 for the items listed next?

Field: example entries. Status: answers known.
# molecule, GI50
measured = [
    ("CC(C)(C)c1cc(C(C)(C)C)c2c(c1O)OC(=O)CS2", "4.15 µM (inactive)"),
    ("CCOC(=O)[C@@]12CCC(C1=O)[C@](C)(O)C[C@@H]2c1ccccc1", "66.5 µM (inactive)"),
]

State the recorded GI50 for every item in the following list.
1. CCOC(=O)n1c2ccccc2c2c(O)c(OC)c3c(c21)C(=O)NC3=O
2. N#Cc1cnn2ccn(C3OC(COC(=O)c4ccccc4)C(OC(=O)c4ccccc4)C3OC(=O)c3ccccc3)c12 (stereo not given)
3. Cc1cccc(C)c1NC(=O)/C(Cc1nc2ccc([N+](=O)[O-])cc2nc1O)=N\NC(N)=O
4. C[N+]1=c2c3cccc4cccc(c(=O)n2CCC1)c43
5. N=C(N)NS(=O)(=O)c1ccc(NC(=O)c2cccc3cc4ccccc4nc23)cc1
6. [N-]=[N+]=Nc1c(N2CCOCC2)c(Cl)nc2ccccc12
7. CSc1nn(C)cc2ncnc1-2
8. COC(=O)/C=C(\S/C(=C(/c1ccccc1)n1cc(C(=O)OC)c(C(=O)OC)n1)c1ccccc1)C(=O)OC

Ans:
1: 52.5 µM (inactive); 2: > 21.5 µM (inactive); 3: > 100 µM (inactive); 4: 19 µM (inactive); 5: > 100 µM (inactive); 6: 30.7 µM (inactive); 7: > 100 µM (inactive); 8: 18.1 µM (inactive)
